biological target: Human PARP-1 enzyme (Homo sapiens, UniProt P09874); construct: purchased Trevigen; assay: In vitro Scintillation Proximity Assay (SPA) for PARP-1 inhibitory activity; format: biochemical; conditions: read-out: in vitro SPA assay PARP-1 pIC50 (converted)
Sequence (P09874 whole entry): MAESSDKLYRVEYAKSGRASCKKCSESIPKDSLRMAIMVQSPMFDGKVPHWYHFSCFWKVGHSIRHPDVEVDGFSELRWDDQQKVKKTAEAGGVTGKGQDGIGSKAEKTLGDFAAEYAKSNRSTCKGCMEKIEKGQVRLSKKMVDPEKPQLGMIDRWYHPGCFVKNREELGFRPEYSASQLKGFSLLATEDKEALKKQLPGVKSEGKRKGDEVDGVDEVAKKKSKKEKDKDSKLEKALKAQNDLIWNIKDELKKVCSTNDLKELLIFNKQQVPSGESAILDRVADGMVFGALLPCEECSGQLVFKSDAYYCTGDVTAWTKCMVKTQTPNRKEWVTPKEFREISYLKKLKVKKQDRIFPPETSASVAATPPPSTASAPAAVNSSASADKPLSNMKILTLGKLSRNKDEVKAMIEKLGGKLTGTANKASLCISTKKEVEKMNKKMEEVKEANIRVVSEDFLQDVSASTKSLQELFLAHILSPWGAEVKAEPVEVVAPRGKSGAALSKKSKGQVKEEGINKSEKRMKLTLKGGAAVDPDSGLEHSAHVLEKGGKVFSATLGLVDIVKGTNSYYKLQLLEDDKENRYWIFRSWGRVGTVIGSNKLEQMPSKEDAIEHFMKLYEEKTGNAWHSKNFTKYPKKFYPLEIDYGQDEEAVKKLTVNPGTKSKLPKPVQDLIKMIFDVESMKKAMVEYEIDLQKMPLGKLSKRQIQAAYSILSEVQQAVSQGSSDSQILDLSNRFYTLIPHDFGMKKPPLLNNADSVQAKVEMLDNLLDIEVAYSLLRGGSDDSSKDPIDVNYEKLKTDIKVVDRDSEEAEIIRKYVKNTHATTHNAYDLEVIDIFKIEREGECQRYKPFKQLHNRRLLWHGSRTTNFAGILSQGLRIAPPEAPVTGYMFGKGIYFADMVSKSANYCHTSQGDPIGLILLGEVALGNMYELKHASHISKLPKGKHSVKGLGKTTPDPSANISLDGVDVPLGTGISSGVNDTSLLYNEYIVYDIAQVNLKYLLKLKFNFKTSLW

>  <compound>
CCc1cc2ccc([C@](C)(C#N)Cc3cccc(/C=C/S(C)(=O)=O)c3)cc2[nH]c1=O (single isomer, unassigned) [Compound 291]

>  <measure.unit>
nM

>  <IC50>
25.1

$$$$
>  <compound>
CCc1cc2ccc(C(C)(C#N)Cc3cccc(CNC)c3)cc2[nH]c1=O (centres unmarked) [Compound 59]

>  <measure.unit>
nM

>  <IC50>
631

$$$$
>  <compound>
CCc1cc2ccc(C(C)(C#N)Cc3cccc(C(=O)NC)c3)cc2[nH]c1=O (centres unmarked) [Compound 13]

>  <measure.unit>
nM

>  <IC50>
398

$$$$
>  <compound>
CCc1cc2ccc(C(C)(C#N)Cc3c(F)cccc3F)cc2[nH]c1=O (centres unmarked) [Compound 138]

>  <measure.unit>
nM

>  <IC50>
1260

$$$$
>  <compound>
CCc1cc2ccc(C(C)(C#N)Cc3cc(Cl)cc4c3OCOC4)cc2[nH]c1=O (centres unmarked) [Compound 90]

>  <measure.unit>
nM

>  <IC50>
316

$$$$
>  <compound>
CCc1cc2ccc(C(C)(C#N)CCOc3ncc(Br)cn3)cc2[nH]c1=O (centres unmarked) [Compound 349]

>  <measure.unit>
nM

>  <IC50>
63.1

$$$$
>  <compound>
CCc1cc2ccc(C(C)(C#N)CC3COc4ccccc4O3)cc2[nH]c1=O (single isomer, unassigned) [Compound 47]

>  <measure.unit>
nM

>  <IC50>
398

$$$$
>  <compound>
CCc1cc2ccc([C@](C)(C#N)C[C@@H]3CCc4cc(C)ccc4O3)cc2[nH]c1=O [Compound 251]

>  <measure.unit>
nM

>  <IC50>
200

$$$$
>  <compound>
COc1cc(OC)nc(CC(C)(C#N)c2ccc3cc(C)c(=O)[nH]c3c2)n1 (centres unmarked) [Compound 308]

>  <measure.unit>
nM

>  <IC50>
631

$$$$
>  <compound>
CCOc1ccccc1OCCC(C)(C#N)c1ccc2cc(CC)c(=O)[nH]c2c1 (centres unmarked) [Compound 142]

>  <measure.unit>
nM

>  <IC50>
631

$$$$
>  <compound>
CCc1cc2ccc(C(C)(C#N)CCOc3cc(Cl)c(Cl)cc3Cl)cc2[nH]c1=O (centres unmarked) [Compound 277]

>  <measure.unit>
nM

>  <IC50>
398

$$$$
>  <compound>
CCc1cc2ccc(C(C)(C#N)Cc3ccc(OC)cc3)cc2[nH]c1=O (centres unmarked) [Compound 119]

>  <measure.unit>
nM

>  <IC50>
316

$$$$
>  <compound>
CCc1cc2ccc(C(C)(C#N)Cc3nc(C)cc(C)n3)cc2[nH]c1=O (centres unmarked) [Compound 368]

>  <measure.unit>
nM

>  <IC50>
316

$$$$
>  <compound>
CCc1cc2ccc(C(C)(C#N)Cc3cccc(I)n3)cc2[nH]c1=O (centres unmarked) [Compound 214]

>  <measure.unit>
nM

>  <IC50>
50.1

$$$$
>  <compound>
CCc1cc2ccc(C(C)(C#N)Cc3cccc(-c4nc(C)no4)c3)cc2[nH]c1=O (centres unmarked) [Compound 11]

>  <measure.unit>
nM

>  <IC50>
631

$$$$
>  <compound>
CCc1cc2ccc(C(C)(C#N)Cc3cc(OCCOC)nc(Cl)n3)cc2[nH]c1=O (centres unmarked) [Compound 367]

>  <measure.unit>
nM

>  <IC50>
79.4

$$$$
>  <compound>
CCc1cc2ccc(C(C)(C#N)Cc3cnc(OC)nc3Cl)cc2[nH]c1=O (centres unmarked) [Compound 356]

>  <measure.unit>
nM

>  <IC50>
126

$$$$
